Biological target: T1, human GLP-1 receptor (human), P43220
T1 chain: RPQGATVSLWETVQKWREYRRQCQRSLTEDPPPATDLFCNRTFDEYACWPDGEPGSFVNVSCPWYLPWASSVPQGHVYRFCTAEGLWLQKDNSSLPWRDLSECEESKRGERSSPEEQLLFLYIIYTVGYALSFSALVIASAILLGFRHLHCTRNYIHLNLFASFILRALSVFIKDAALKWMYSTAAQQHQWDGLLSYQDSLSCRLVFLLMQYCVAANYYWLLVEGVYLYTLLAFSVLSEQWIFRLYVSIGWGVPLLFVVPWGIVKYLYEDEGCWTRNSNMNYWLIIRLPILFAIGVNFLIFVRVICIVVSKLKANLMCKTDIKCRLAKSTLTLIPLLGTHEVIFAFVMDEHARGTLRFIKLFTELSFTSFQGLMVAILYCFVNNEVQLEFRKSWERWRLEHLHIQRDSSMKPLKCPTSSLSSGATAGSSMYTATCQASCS
Assay: displacement of [125I]GLP-1 from HEK-293 membranes expressing hGLP-1R (SPA beads)
Square brackets hold non-standard residues; d marks the D form. Ends that are not written are not given here. Aib = CC(C)(N)C(=O)O
value.type: IC50
Answer as a quantity: numeral, then unit.

Name the reported IC50 value associated with the binder Y[Aib]EGTFISDLSI[Aib]LEEQKQ[Aib]EFIEWLLAQGPSSGEPPPS-NH2 [SEQ ID NO: 38]
73 nM
